Test system: CCRF-CEM leukemia
assay.comment: NCI tumour cell line growth inhibition, 48 h
measurement.kind: TGI

Take a look at these entries with their results.
1) N#Cc1c(N)nc2c3c1NC(=O)C(C(N)=O)C3c1ccccc1O2 (centres undefined)	> 100 µM
2) COC(=O)c1c(-c2cccs2)oc(-c2cccs2)c1C(=O)OC	> 100 µM
3) CC/C(Cc1ccccc1)=C(\c1ccc(OCCN2CCCC2)cc1)c1ccc(OC(=O)NCc2ccccc2)cc1	7.56 µM

// switching to the query molecule
# molecule `CCNc1cc2c3c(c1)CCN3CCC2` ; its TGI = > 10 µM

* * *

System: CCRF-CEM leukemia
assay.comment: NCI tumour cell line growth inhibition, 48 h
Consider the following compounds and their measured TGI readings.

Look over these answered cases.
1. Cc1c(C(=O)O)n(C)c(=O)n(C)c1=O	> 100 µM
2. NC(=O)c1ccc(Oc2nccc(-c3c(-c4ccc(F)cc4)ncn3C3CCNCC3)n2)cc1	> 25 µM

Now look at this one.
The compound CCOc1cc2c(cc1O)C(O)C[C@@H]1[C@@H]2CC[C@]2(C)[C@@H](O)CC[C@@H]12 (stereo partly drawn) showed TGI equal to > 100 µM

* * *

The reader will find reported GI50 values listed item by item below.
Tested on: NCI-H226 lung
assay.comment: NCI tumour cell line growth inhibition, 48 h

Worked cases, GI50 given:
1. CCCCC#Cc1c(I)n(C)c(=O)[nH]c1=O	14.4 µM
2. COc1ccc(/C=C/c2c(C(=O)/C=C/c3ccc(C(F)(F)F)cc3)c(C)nc3ccccc23)cc1	1.85 µM

GI50 recorded for this compound, `Cc1c(C#N)cccc1[C@@H](C)Nc1nnc(C)c2cnc(N3CCOCC3)cc12` , is 23.2 µM

* * *

This section presents compounds with their documented TGI values.
Test system: UACC-62 melanoma
assay.comment: NCI tumour cell line growth inhibition, 48 h

1) Oc1ccc(-c2nc3ccccc3s2)cc1	> 100 µM

The reported TGI of the compound COc1cc(OC)cc(C2C3=C(COC3=O)Nc3cc(OC)ccc32)c1 (stereo not drawn) was > 81.2 µM

Entry under test: [N-]=[N+]=NCC(O)Cn1cnc2c(NC(=O)c3ccccc3)ncnc21 (stereo not drawn) . Its TGI was > 100 µM

For record `Cc1ccc([N+](=O)[O-])c2c(NCCNC(=O)c3cc(C(=O)NCCNc4ccnc5c(C)ccc([N+](=O)[O-])c45)n(C)n3)ccnc12` the listed TGI is > 83 µM

The compound `COc1cc2nc(-c3cccs3)nc(Nc3cccc(Cl)c3)c2cc1OC` showed TGI equal to > 100 µM

// sample `CC1=C(SC#N)S(=O)(=O)N(c2ccccc2)C(C)=C1SC#N` , its TGI was > 100 µM

So for CC(=O)OC12C=C(C)C(C(C)C1)C1C(=O)N(CCN3CCCCC3)C(=O)C12 (stereo not drawn) , the logged TGI turned out to be > 50 µM

`CN1Cc2ccccc2/C=C\c2ccccc21` has a reported TGI of > 100 µM

Noted for `Clc1ccc(-c2c3ccc(=[N+]4CCCCC4)cc-3oc3cc(N4CCCCC4)ccc23)cc1` : its TGI reads 0.452 µM

// TGI value for `COC(NC(=O)Nc1ccccc1C)(C(F)(F)F)C(F)(F)F` : > 100 µM

Quick note, TGI for `Cc1cc(-c2nc3cccc(O)c3s2)ccc1N` landed at 33.1 µM

Lab book: TGI of COc1ccc2cc(C(C)C(=O)N3C(=O)OCC3(C)C)ccc2c1 (stereo not drawn) noted as > 100 µM

So, `O=C1NC(N2CCOCC2)=N/C1=C\c1ccc(O)cc1` ? Its TGI was > 100 µM

Lookup result for `ClCc1ccccc1Cn1cnc2ncnc(Cl)c21` ; measured TGI: 5.12 µM

The value of TGI measured for the compound O=[N+]([O-])c1ccc(Cl)c(CNc2ncnc3c2ncn3C2CCCCO2)c1 (stereo not drawn) turned out to be > 100 µM

The reported value for `COc1ccc2nc(C(=O)c3ccccc3)c(C)cc2c1` in terms of TGI is > 100 µM

compound `CC(=O)N1CCN(CCNC(=O)n2cc(-c3ccncc3)c(-c3cc(O)cc(Cl)c3)n2)CC1` , TGI observed: 16.2 µM

TGI for `CCCCCCCCOc1ccc(/C=C/C2=[N+](CCO)CCO2)cc1` is 17.2 µM

* * *

Test system: LOX IMVI melanoma
assay.comment: NCI tumour cell line growth inhibition, 48 h
Each entry below carries its recorded TGI.

These solved cases illustrate the format of a correct answer.
1) CC(C)c1cccc(C(C)C)c1N1C(=O)C(=O)C(c2nc3ccccc3o2)C(=O)C1=O	> 100 µM
2) Oc1ccc(Oc2cc3c(cc2Oc2ccc(O)cc2)-c2nc-3nc3[nH]c(nc4nc(nc5[nH]c(n2)c2cc(Oc6ccc(O)cc6)c(Oc6ccc(O)cc6)cc52)-c2cc(Oc5ccc(O)cc5)c(Oc5ccc(O)cc5)cc2-4)c2cc(Oc4ccc(O)cc4)c(Oc4ccc(O)cc4)cc32)cc1	> 100 µM
3) COC1CC(O)C(OC(=O)c2ccccc2)C(C)O1 (stereo not drawn)	> 100 µM
4) CC1(C)O[C@@H](C[C@]2(C#N)C[C@H](CCl)OC(C)(C)O2)C[C@@H](C#N)O1	> 100 µM
5) O=C(O)/C(Cc1cn[nH]n1)=N\O	> 100 µM
6) COc1cc(C2C3=C(COC3=O)N(CCO)c3cc4c(cc32)OCCO4)cc(OC)c1OC (stereo not drawn)	> 50 µM
7) N/C(=N\N=C\c1ncccc1O)NO	> 100 µM
8) CCCOC(=O)c1c(C)n(C)c2scc[n+]12	> 100 µM

Record for `CCOC(=O)/C(=C/c1cccc(Cl)c1)N(CC)CC` under target or system LOX IMVI melanoma: TGI reported as > 100 µM

With LOX IMVI melanoma as the test system, `Nc1nc2c(C(=O)NCc3cccs3)nnn2c2cccc(Cl)c12` showed TGI of > 100 µM

With LOX IMVI melanoma as the test system, `Cc1c(C(=O)O)n(C)c(=O)n(C)c1=O` showed TGI of > 100 µM

# lookup: `Nc1c(S(=O)(=O)O)cc(S(=O)(=O)O)c2ccc(N=Nc3ccc(/C=C/c4ccc(N=Nc5ccc6c(S(=O)(=O)O)cc(S(=O)(=O)O)c(N)c6c5O)cc4S(=O)(=O)O)c(S(=O)(=O)O)c3)c(O)c12` on LOX IMVI melanoma, TGI = > 100 µM

Entry `CCCc1cc(=O)n2c(C(=O)Nc3ccc(F)cc3)c(C(=O)Nc3ccc(F)cc3)sc2n1` , LOX IMVI melanoma data, TGI value: > 160 µM

Considering `O=c1c2nc(-c3ccccc3)oc2n(-c2ccccc2)c(=O)n1-c1ccccc1` , its TGI with LOX IMVI melanoma was recorded as > 46.4 µM

Reading of TGI for `CN1Cc2ccccc2/C=C\c2ccccc21` with LOX IMVI melanoma: > 100 µM

Note to self: TGI of `COc1ccc(C(=O)c2cc(C)c(OC)c(C)c2)c(OC)c1NC(C)=O` with LOX IMVI melanoma was > 100 µM

Value (TGI, LOX IMVI melanoma) for record `O=C(Nc1nn[nH]n1)c1nc(-c2ccccc2)cc(=O)[nH]1` = > 100 µM

For the molecule `O=C1/C(=C/c2cccc3ccccc23)CCc2ccc([N+](=O)[O-])cc21` , the measured TGI on LOX IMVI melanoma was > 100 µM

* * *

Tested on: T-47D breast
assay.comment: NCI tumour cell line growth inhibition, 48 h
measurement.kind: TGI

A selection of reference data follows.
1. O=c1[nH]nc(Cc2ccc(Cl)cc2)n1/N=C/c1ccc([N+](=O)[O-])o1	> 77.6 µM
2. Cc1c([C@H](C)[C@@H]2NC[C@@H](C)C[C@H]2O)ccc2c1C[C@H]1[C@H]2CC=C2C[C@@H](O)CC[C@@]21C	53.2 µM
3. Oc1ccc(Oc2cc3c(cc2Oc2ccc(O)cc2)-c2nc-3nc3[nH]c(nc4nc(nc5[nH]c(n2)c2cc(Oc6ccc(O)cc6)c(Oc6ccc(O)cc6)cc52)-c2cc(Oc5ccc(O)cc5)c(Oc5ccc(O)cc5)cc2-4)c2cc(Oc4ccc(O)cc4)c(Oc4ccc(O)cc4)cc32)cc1	> 100 µM
4. Cc1cc(N(CCOS(C)(=O)=O)CCOS(C)(=O)=O)ccc1C(=O)O	> 100 µM
5. Cc1cc(-c2c(F)cc3c4nn([C@H]5CC[C@@H](N(C)C)CC5)c(=O)c-4cn(C4CC4)c3c2F)cc(C)n1	2.76 µM
6. O=C(O)/C(Cc1cn[nH]n1)=N\O	> 100 µM

compound COc1cc(OC)cc(C2C3=C(COC3=O)Nc3cc(OC)ccc32)c1 (stereo unspecified) , TGI observed: > 100 µM

For this compound ( `O=C(NCCCc1cn[nH]c1)c1ccc(-c2ccncc2)c(C#Cc2ccc(F)cc2)c1` ), measured TGI is 11 µM

# TGI (compound: `COc1cc(/C=C/c2ccc(O)c(OC)c2)cc(OC)c1` ) is > 100 µM

TGI in this record for `CC(C)CCOC(=O)NC(Nc1ccc(F)cc1)(C(F)(F)F)C(F)(F)F` : 78.5 µM

Input CC(=O)OC12C=C(C)C(C(C)C1)C1C(=O)N(CCN3CCCCC3)C(=O)C12 (stereo unspecified) . Output TGI: > 50 µM

According to the records, this compound COc1ccc2cc(C(C)C(=O)N3C(=O)OCC3(C)C)ccc2c1 (stereo unspecified) displays TGI of > 100 µM

`NC(=O)c1ccc(Oc2nccc(-c3c(-c4ccc(F)cc4)ncn3C3CCNCC3)n2)cc1` yielded TGI of > 25 µM

Looking up `COc1cc2nc(-c3cccs3)nc(Nc3cccc(Cl)c3)c2cc1OC` , I found its TGI recorded as > 100 µM

Entry under test: `O=C(O)/C=C\C(=O)Nn1c(Cc2ccc(Cl)cc2)n[nH]c1=O` . Its TGI was > 100 µM

Lab book: TGI of `CC(C)(C)OC(=O)c1ccc(NCC2=C(Br)C(=O)C=CC2=O)cc1` noted as 41.4 µM
